- assayProtocol: protein stability index of a GFP-peptide fusion (GPS, HEK-293T) (PSI 1-6); higher = more stable;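 note: 24-mer peptide tiles fused after GFP, lentivirally expressed, FACS-sorted into six equal bins by GFP/DsRed ratio, decoded by Illumina sequencing, PSI is the read-weighted mean bin number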
- conditionSummary: treatment: MLN4924 1 uM, 8 h; c terminus: a fixed tail appended
measuredParameter: protein stability index
Respond numerically, and do not add a unit to the figure.

So, EEEDLRRRLKYFFMSPCDKFRAKG [MCOLN1] ? Its protein stability index was 3.15

---

- assayProtocol: protein stability index of a GFP-peptide fusion (GPS, HEK-293T) (PSI 1-6); higher = more stable
- conditionSummary: treatment: DMSO; c terminus: a fixed tail appended
Binary call on protein stability index: 1 from 4 upward, 0 beneath that.

A selection of reference data follows.
{"monomerSequence": "QFSLMLCAFVGALGGAAFLGTAIF [SPNS1]", "discreteLabel": 0}
{"monomerSequence": "KAPDIECVLRCSVLEIEQSMNRVK [FEM1B]", "discreteLabel": 0}
{"monomerSequence": "EEERDEEEDKRRKGEEVTPISAIR [EPB41L3]", "discreteLabel": 1}
{"monomerSequence": "DPNTAAGWLSVSDDLTSVTNHGYR [TRIM35]", "discreteLabel": 1}
{"monomerSequence": "AASPGEAPAASEGAAAPATPTPVA [SNAP91]", "discreteLabel": 1}

Identify whether the reported protein stability index of the following sequence is 4 or greater: PGSASLAQSRLEDPGQDLVPKQAI [DLX1] 1

Quick check, protein stability index >= 4? KVVSRAENLSVPVIGALLRFNQAI [LPCAT4] 0

---

Attribute: protein stability index
- assayProtocol: protein stability index of a GFP-peptide fusion (GPS, HEK-293T) (PSI 1-6); higher = more stable
- conditionSummary: treatment: DMSO; c terminus: a fixed tail appended

Worked cases, answers included:
{"monomerSequence": "DLRLRLDHLGWVARGTGSGEDSST [RTN2]", "measured": 3.53}
{"monomerSequence": "PSPPPGSHYTSPSENMWNTGSTYN [CARM1]", "measured": 3.8}
{"monomerSequence": "PANVDASVMFRKWRDSKGKDKEYA [UBE2R2]", "measured": 4.09}
{"monomerSequence": "LPPTPLLLFPEEEATNGREGLLRF [AUP1]", "measured": 3.7}
{"monomerSequence": "MDETSPLVSPERAQPPDYTFPSGS [PI4K2A]", "measured": 4.91}

Summary for this sequence, MEALDLQPGLSFLNLGSGTGYLSS [PCMTD2] : protein stability index is 3.4

EKGILTTEKQNFLLFDMTTHPVTN [GOLPH3L] has a reported protein stability index of 3.69

protein stability index reading for LSELLRYHTSQSGDEMTSLSEYVS [HSP90AB1] : 3.27

// protein stability index value for PETEAVSSSQEIPTMPQPIEKVSV [ZMYND11] : 5.24

Form field protein stability index, entry QRMRVPEKLKVAPPNADLEQGFQE [MFF] : 4.82

The recorded protein stability index for MKKGGIFSAEFLKVFIPSLFLSHV [BNIP3L] is 3

// sample MDRFDCQYLMATFVHVYITSFIRG [CDS1] , its protein stability index was 3.01

According to the records, this sequence ILVQTPESESPQSHRAAGSGVSDY [TRIM9] displays protein stability index of 4.49

---

- assayProtocol: protein stability index of a GFP-peptide fusion (GPS, HEK-293T) (PSI 1-6); higher = more stable
- conditionSummary: treatment: MLN4924 1 uM, 8 h; c terminus: a fixed tail appended
# label = Met if protein stability index >= 3 else Not met

Take a look at these entries with their results.
{"monomerSequence": "GSQAGGSGSAGQYGSDQQHHLGSG [MYOZ1]", "discreteLabel": "Met"}
{"monomerSequence": "GDSGFLVVRGGEVVHRSDEQQHYF [PPTC7]", "discreteLabel": "Met"}
{"monomerSequence": "GDTLRTFSLVLVLDLSKPNDLWPT [DYNC2LI1]", "discreteLabel": "Not met"}

Decide: protein stability index of ARRDAKKLVRSPSGLRMVPEHRAF [ZFYVE21] >= 3? Met

Quick check: does PKYQLFVPQLVTGRCATRAFHRKS [RNF180] have protein stability index greater than or equal to 3? Not met

Hi, just wondering whether ARSPSGPSGSLENGTKADGKDAKT [TRIM29] shows protein stability index of 3 or higher. Met

Answer whether protein stability index of IYAYDAKIEIQTLTGLFKGDKCHS [CASP6] is greater than or equal to 3. Not met

Decide: protein stability index of LSSGMAVAGMPTAYDLSSVIASGS [CARM1] >= 3? Not met

Has RARLDSMVLLIMKLDQLDQDIENA [DLC1] a recorded protein stability index greater than or equal to 3? Not met

Is it the case that NLAQDPQCKEWQVLMCGFPFLLLF [TMEM120A] has protein stability index reaching or exceeding 3? Not met

Could you verify whether the entry QNPPVIKSSGRFLWIKFFAAGELE [NETO1] shows protein stability index of no less than 3? Not met

Reported protein stability index reaches at least 3 for RLQEVRESIRRAQVSQVKGAARLA [FCHSD1] ? Met
